MEASUREMENT TARGET: CDK9/T1 (Homo sapiens)
Sequence (P50750 whole entry): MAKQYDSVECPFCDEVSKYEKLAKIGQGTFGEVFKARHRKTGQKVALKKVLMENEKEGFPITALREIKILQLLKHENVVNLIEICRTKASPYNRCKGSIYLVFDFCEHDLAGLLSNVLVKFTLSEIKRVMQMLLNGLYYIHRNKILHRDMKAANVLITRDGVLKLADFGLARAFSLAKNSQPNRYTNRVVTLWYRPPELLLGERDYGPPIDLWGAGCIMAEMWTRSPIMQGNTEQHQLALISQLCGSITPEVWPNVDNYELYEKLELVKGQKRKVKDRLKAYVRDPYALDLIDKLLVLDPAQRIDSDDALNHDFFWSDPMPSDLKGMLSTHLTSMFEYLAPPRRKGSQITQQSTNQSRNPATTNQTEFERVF
Sequence (O60563 whole entry partner): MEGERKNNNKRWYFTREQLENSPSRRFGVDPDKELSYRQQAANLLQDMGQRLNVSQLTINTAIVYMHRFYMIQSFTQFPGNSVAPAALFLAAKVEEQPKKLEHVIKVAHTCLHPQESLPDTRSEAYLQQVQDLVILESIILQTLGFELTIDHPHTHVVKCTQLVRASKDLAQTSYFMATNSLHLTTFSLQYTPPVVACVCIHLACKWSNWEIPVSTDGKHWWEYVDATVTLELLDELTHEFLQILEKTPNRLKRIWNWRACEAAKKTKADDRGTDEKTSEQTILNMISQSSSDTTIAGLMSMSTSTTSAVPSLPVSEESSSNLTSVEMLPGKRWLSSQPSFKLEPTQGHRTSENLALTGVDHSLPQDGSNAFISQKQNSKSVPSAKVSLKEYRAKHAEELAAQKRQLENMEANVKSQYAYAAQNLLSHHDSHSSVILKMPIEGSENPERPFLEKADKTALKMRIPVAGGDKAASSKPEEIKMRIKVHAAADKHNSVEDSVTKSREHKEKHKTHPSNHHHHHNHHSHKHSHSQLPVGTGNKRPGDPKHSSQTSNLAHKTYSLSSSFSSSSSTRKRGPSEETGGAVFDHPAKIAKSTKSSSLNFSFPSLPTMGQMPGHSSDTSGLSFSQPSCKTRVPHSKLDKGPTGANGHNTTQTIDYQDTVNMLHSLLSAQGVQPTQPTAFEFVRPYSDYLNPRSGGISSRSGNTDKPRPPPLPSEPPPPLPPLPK
EXPERIMENT: ADP Glo Kinase assay CDK9/T1
Type: biochemical
Experimental: Eurofins Pharma Discovery or Reaction Biology Corporation Kinase Profiler services were used to measure inhibition of CDKs and other kinases by radiometric assay. Inhibition of CDK4/D1, CDK6/D3 and CDK9/T1 were also determined in-house using ADP Glo Kinase assays (Promega Corporation, Madison, USA). […] Luminescence was measured using an EnVision Multilabel plate reader (PerkinElmer, Buckinghamshire, UK). […]
OBSERVED PROPERTY: Ki
Lab note: write values as number then unit, every time.

Problem: GET /values?readout=Ki&item= Cc1cnc(N[C@H]2CC[C@H](N3CC3)CC2)nc1-c1cnc2cc(Nc3cncnc3)ccn12 [Compound 119]
Solution: 4 nM

###

MEASUREMENT TARGET: CDKs and other kinases (Homo sapiens)
Construct: other: CDK1B; residual activity (%) at 10 μM CDK1B; compound at 10 μM
Sequence (P06493 whole entry): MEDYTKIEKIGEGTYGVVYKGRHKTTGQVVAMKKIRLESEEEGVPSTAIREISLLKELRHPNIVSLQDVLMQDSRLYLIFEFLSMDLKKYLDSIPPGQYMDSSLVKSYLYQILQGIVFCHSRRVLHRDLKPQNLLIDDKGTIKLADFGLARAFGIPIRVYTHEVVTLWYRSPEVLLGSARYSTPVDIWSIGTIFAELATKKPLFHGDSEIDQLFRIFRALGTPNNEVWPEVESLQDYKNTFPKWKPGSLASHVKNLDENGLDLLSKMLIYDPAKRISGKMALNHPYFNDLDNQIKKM
EXPERIMENT: Radiometric kinase assay (Eurofins Pharma Discovery or Reaction Biology Corporation Kinase Profiler)
Type: biochemical
STATED CONDITIONS: CDK1B; read-out: CDK inhibition, Ki (μM) CDK1B
I'd appreciate it if you could supply Ki values for the items below.

Problem: GET /values?readout=Ki&item= `COc1ccc(-c2ccc3ncc(-c4nc(N[C@H]5CC[C@H](N)CC5)ncc4Cl)n3c2)cc1`
Solution: 0.82 µM

Problem: GET /values?readout=Ki&item= `Cc1ccc(Nc2ccc3ncc(-c4nc(N[C@H]5CC[C@H](N)CC5)ncc4C)n3c2)cn1`
Solution: 2.95 µM

Problem: GET /values?readout=Ki&item= `N[C@H]1CC[C@H](Nc2ncc(Cl)c(-c3cnc4ccc(-c5ncccc5F)cn34)n2)CC1`
Solution: 0.88 µM

Problem: GET /values?readout=Ki&item= `N[C@H]1CC[C@H](Nc2ncc(Cl)c(-c3cnc4ccc(-c5ccncc5)cn34)n2)CC1`
Solution: 0.065 µM

Problem: GET /values?readout=Ki&item= `N[C@H]1CC[C@H](Nc2ncc(Cl)c(-c3cnc4ccc(Br)cn34)n2)CC1`
Solution: 0.121 µM

Problem: GET /values?readout=Ki&item= `N[C@H]1CC[C@H](Nc2ncc(F)c(-c3cnc4ccc(F)cn34)n2)CC1`
Solution: 0.085 µM

Problem: GET /values?readout=Ki&item= `N[C@H]1CC[C@H](Nc2ncc(Cl)c(-c3cnc4ccc(Nc5cncnc5)cn34)n2)CC1`
Solution: 0.16 µM

Problem: GET /values?readout=Ki&item= `N[C@H]1CC[C@H](Nc2ncc(F)c(-c3cnc4ccc(NCc5ccc(F)cc5)cn34)n2)CC1`
Solution: 0.42 µM

Problem: GET /values?readout=Ki&item= `Cc1noc(C)c1-c1ccc2ncc(-c3nc(N[C@H]4CC[C@H](N)CC4)ncc3Cl)n2c1`
Solution: 2.56 µM

Problem: GET /values?readout=Ki&item= `CN1CCC(Nc2ncc(F)c(-c3cnc4ccccn34)n2)CC1`
Solution: 0.795 µM

Problem: GET /values?readout=Ki&item= `Cc1cnc(N[C@H]2CC[C@H](N3CCC3)CC2)nc1-c1cnc2ccc(Nc3cncnc3)cn12`
Solution: 0.532 µM

Problem: GET /values?readout=Ki&item= `N[C@H]1CC[C@H](Nc2ncc(Cl)c(-c3cnc4ccc(C(F)(F)F)cn34)n2)CC1`
Solution: 0.329 µM

Problem: GET /values?readout=Ki&item= `Cc1cnc(N[C@H]2CC[C@H](N)CC2)nc1-c1cnc2ccc(Nc3ccc(F)nc3)cn12`
Solution: 1.53 µM

Problem: GET /values?readout=Ki&item= `Cc1cnc(N[C@H]2CC[C@H](N3CC3)CC2)nc1-c1cnc2cc(Nc3cncnc3)ccn12`
Solution: 0.623 µM

Problem: GET /values?readout=Ki&item= `N[C@H]1CC[C@H](Nc2ncc(F)c(-c3cnc4ccc(-c5ccccc5)cn34)n2)CC1`
Solution: 0.014 µM

Problem: GET /values?readout=Ki&item= `N[C@H]1CC[C@H](Nc2ncc(Cl)c(-c3cnc4ccccn34)n2)CC1`
Solution: 0.46 µM

Problem: GET /values?readout=Ki&item= `Cc1cnc(N[C@H]2CC[C@H](N)CC2)nc1-c1cnc2ccc(NCc3ccc(F)cc3)cn12`
Solution: > 10 µM

Problem: GET /values?readout=Ki&item= `N[C@H]1CC[C@H](Nc2ncc(F)c(-c3cnc4ccc(Nc5ccccc5)cn34)n2)CC1`
Solution: 0.013 µM

Problem: GET /values?readout=Ki&item= `COc1ccc(-c2ccc3ncc(-c4nc(N[C@H]5CC[C@H](N)CC5)ncc4Cl)n3c2)cn1`
Solution: 2.01 µM

Problem: GET /values?readout=Ki&item= Cc1cnc(NC2CCC(N(C)C)CC2)nc1-c1cnc2ccc(Nc3cncnc3)cn12 (centres unmarked)
Solution: 1.66 µM

Problem: GET /values?readout=Ki&item= `Cc1cncc(Nc2ccc3ncc(-c4nc(N[C@H]5CC[C@H](N)CC5)ncc4C)n3c2)c1`
Solution: 2.37 µM

Problem: GET /values?readout=Ki&item= `CN1CCC(Nc2ncc(F)c(-c3cnc4ccc(-c5ccccc5)cn34)n2)CC1`
Solution: 0.047 µM

Problem: GET /values?readout=Ki&item= `CS(=O)(=O)N1CCC(Nc2ncc(F)c(-c3cnc4ccc(-c5ccccc5)cn34)n2)CC1`
Solution: 0.334 µM

Problem: GET /values?readout=Ki&item= `Cc1cnc(N[C@H]2CC[C@H](N)CC2)nc1-c1cnc2ccc(-c3ccccc3)cn12`
Solution: 1.53 µM

Problem: GET /values?readout=Ki&item= `N[C@H]1CC[C@H](Nc2ncc(Cl)c(-c3cnc4c(-c5cccnc5)cc(C(F)(F)F)cn34)n2)CC1`
Solution: 2.64 µM

Problem: GET /values?readout=Ki&item= `Cc1cnc(N[C@H]2CC[C@H](N)CC2)nc1-c1cnc2ccc(Nc3cnccn3)cn12`
Solution: 4.32 µM

Problem: GET /values?readout=Ki&item= `CS(=O)(=O)N[C@H]1CC[C@H](Nc2ncc(Cl)c(-c3cnc4ccc(Br)cn34)n2)CC1`
Solution: 0.004 µM

Problem: GET /values?readout=Ki&item= `N[C@H]1CC[C@H](Nc2ncc(Cl)c(-c3cnc4c(Br)cc(C(F)(F)F)cn34)n2)CC1`
Solution: 0.755 µM

Problem: GET /values?readout=Ki&item= `Cc1cnc(N[C@H]2CC[C@H](NC(C)C)CC2)nc1-c1cnc2ccc(Nc3cncnc3)cn12`
Solution: 0.78 µM

Problem: GET /values?readout=Ki&item= `Fc1cnc(NC2CCN(CC3CC3)CC2)nc1-c1cnc2ccc(-c3ccccc3)cn12`
Solution: 0.222 µM

Problem: GET /values?readout=Ki&item= `N[C@H]1CC[C@H](Nc2ncc(Cl)c(-c3cnc4ccc(-c5cccnc5)cn34)n2)CC1`
Solution: 0.88 µM

Problem: GET /values?readout=Ki&item= CC(=O)NC1CCC(Nc2ncc(C)c(-c3cnc4ccc(Nc5cncnc5)cn34)n2)CC1 (centres unmarked)
Solution: 0.82 µM

###

I'd appreciate it if you could supply remaining activity at 10 µM values for the items below.
MEASUREMENT TARGET: CDK4/D1 (Homo sapiens, UniProt P11802)
Sequence (P11802 whole entry): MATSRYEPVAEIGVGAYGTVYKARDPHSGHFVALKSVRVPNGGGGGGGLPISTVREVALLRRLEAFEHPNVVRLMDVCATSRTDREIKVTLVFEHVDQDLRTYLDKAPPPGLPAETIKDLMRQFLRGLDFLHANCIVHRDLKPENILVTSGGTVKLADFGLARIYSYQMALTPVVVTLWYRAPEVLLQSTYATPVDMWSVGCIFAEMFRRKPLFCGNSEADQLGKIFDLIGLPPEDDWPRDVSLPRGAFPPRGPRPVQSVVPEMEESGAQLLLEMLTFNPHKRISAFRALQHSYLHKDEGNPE
Sequence (P24385 whole entry partner): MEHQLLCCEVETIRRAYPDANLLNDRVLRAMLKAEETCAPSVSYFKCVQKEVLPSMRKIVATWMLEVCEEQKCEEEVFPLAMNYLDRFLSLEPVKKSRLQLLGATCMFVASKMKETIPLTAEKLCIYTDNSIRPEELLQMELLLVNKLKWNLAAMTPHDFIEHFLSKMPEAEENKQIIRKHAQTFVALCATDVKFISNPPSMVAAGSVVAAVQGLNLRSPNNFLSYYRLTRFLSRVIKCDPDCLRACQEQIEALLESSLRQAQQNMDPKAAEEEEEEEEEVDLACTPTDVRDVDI
EXPERIMENT: ADP Glo Kinase assay CDK4/D1
Format: biochemical
STATED CONDITIONS: CDK4D1; compound at 10 μM; read-out: residual activity (%) at 10 μM CDK4D1
Experimental: Eurofins Pharma Discovery or Reaction Biology Corporation Kinase Profiler services were used to measure inhibition of CDKs and other kinases by radiometric assay. Inhibition of CDK4/D1, CDK6/D3 and CDK9/T1 were also determined in-house using ADP Glo Kinase assays (Promega Corporation, Madison, USA). […] Luminescence was measured using an EnVision Multilabel plate reader (PerkinElmer, Buckinghamshire, UK). […]
Lab note: write values as number then unit, every time.

Problem: GET /values?readout=remaining activity at 10 µM&item= Cc1cnc(N[C@H]2CC[C@H](N)CC2)nc1-c1cnc2ccc(-c3ccoc3)cn12 [Compound 63]
Solution: 38%

Problem: GET /values?readout=remaining activity at 10 µM&item= Cc1cnc(N[C@H]2CC[C@H](N)CC2)nc1-c1cnc2ccc(Nc3ccc(OC(F)F)nc3)cn12 [Compound 68]
Solution: 37%

Problem: GET /values?readout=remaining activity at 10 µM&item= CS(=O)(=O)N1CCC(Nc2ncc(F)c(-c3cnc4cc(-c5ccccc5)ccn34)n2)CC1 [Compound 171]
Solution: 47%

Problem: GET /values?readout=remaining activity at 10 µM&item= N[C@H]1CC[C@H](Nc2ncc(F)c(-c3cnc4ccc(Nc5ccccc5)cn34)n2)CC1 [Compound 6]
Solution: 11%

Problem: GET /values?readout=remaining activity at 10 µM&item= Cc1cnc(N[C@H]2CC[C@H](N)CC2)nc1-c1cnc2ccc(Nc3ccccn3)cn12 [Compound 128]
Solution: 38%

Problem: GET /values?readout=remaining activity at 10 µM&item= Cc1cnc(N2CCC3(CCNC3=O)CC2)nc1-c1cnc2ccc(-c3ccccc3)cn12 [Compound 125]
Solution: 100%

Problem: GET /values?readout=remaining activity at 10 µM&item= CNC(=O)N[C@H]1CC[C@H](Nc2ncc(C)c(-c3cnc4ccc(Nc5cncnc5)cn34)n2)CC1 [Compound 172]
Solution: 6%

Problem: GET /values?readout=remaining activity at 10 µM&item= COc1cnc(N[C@H]2CC[C@H](N)CC2)nc1-c1cnc2ccccn12 [Compound 11]
Solution: 40%

Problem: GET /values?readout=remaining activity at 10 µM&item= Cc1cnc(N[C@H]2CC[C@H](N3CCCC3)CC2)nc1-c1cnc2ccc(-c3ccccc3)cn12 [Compound 140]
Solution: 65%

Problem: GET /values?readout=remaining activity at 10 µM&item= N[C@H]1CC[C@H](Nc2ncc(F)c(-c3cnc4ccc(Nc5cncnc5)cn34)n2)CC1 [Compound 50]
Solution: 14%

Problem: GET /values?readout=remaining activity at 10 µM&item= Fc1cnc(NC2CCNCC2)nc1-c1cnc2cc(-c3ccccc3)ccn12 [Compound 170]
Solution: 5%

Problem: GET /values?readout=remaining activity at 10 µM&item= N[C@H]1CC[C@H](Nc2ncc(F)c(-c3cnc4ccc(NC(=O)Cc5ccccc5)cn34)n2)CC1 [Compound 52]
Solution: 4%

Problem: GET /values?readout=remaining activity at 10 µM&item= Cc1cnc(N[C@H]2CC[C@H](N)CC2)nc1-c1cnc2cc(C(F)(F)F)c(-c3ccccc3)cn12 [Compound 150]
Solution: 21%

Problem: GET /values?readout=remaining activity at 10 µM&item= CCN[C@H]1CC[C@@H](Nc2ncc(C)c(-c3cnc4ccc(-c5ccccc5)cn34)n2)CC1 [Compound 132]
Solution: 16%

Problem: GET /values?readout=remaining activity at 10 µM&item= Cc1cncc(Nc2ccc3ncc(-c4nc(N[C@H]5CC[C@H](N)CC5)ncc4C)n3c2)c1 [Compound 64]
Solution: 1%

Problem: GET /values?readout=remaining activity at 10 µM&item= Fc1cnc(NC2CCN(CC3CC3)CC2)nc1-c1cnc2ccccn12 [Compound 22]
Solution: 2%

Problem: GET /values?readout=remaining activity at 10 µM&item= Cc1cnc(NC2CCCC(N)C2)nc1-c1cnc2ccc(Nc3cccnc3)cn12 (stereo not drawn) [Compound 95]
Solution: 76%

Problem: GET /values?readout=remaining activity at 10 µM&item= Cc1cnc(N[C@H]2CC[C@H](N)CC2)nc1-c1cnc2ccc(Nc3ccc(F)nc3)cn12 [Compound 123]
Solution: 31%

Source of measurements: patent US11111245B2
